# Test system: Bacillus subtilis
# assay-overview: Antimicrobial activity against Bacillus subtilis ATCC 6633 after 24 hrs by MTT assay
# Format: functional
# experimental-setup: ATCC 6633, 24 h
In this section, each of the molecules is paired with its reported MIC50.
Respond with the bare value in µg/mL.

compound-structure-string	tgt	number
NC[C@H]1O[C@H](O[C@H]2[C@H](O)[C@@H](O[C@H]3O[C@H](CO)[C@@H](O)[C@H](N)[C@H]3O)[C@H](N)C[C@@H]2N)[C@H](O)[C@@H](O)[C@@H]1O	Bacillus subtilis	0.43
O=C1OCC(N2CCNCC2)=C1c1ccc(Br)cc1	Bacillus subtilis	78.5

For reference, reported MIC50 for "O=C1OCC(NNc2ccc([N+](=O)[O-])cc2)=C1c1ccc(Br)cc1" stands at 9.5
